assay: NCI Yeast Anticancer Drug Screen. Data for the rad14 strain (AID 159);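 also: 0% = growth of vehicle-treated control cultures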; conditions: S. cerevisiae rad14 strain growth inhibition; at 100.0 µM; hits give high values
This is part of a sample that, as a whole, favours compounds with a hit. Of some 79,000 tested, about 15% had one in any assay.
Here, each record is paired with measured growth inhibition data.
Use % as the unit, but write only the number.

{"MOLECULE": "O=C(c1cc(=O)c2ccc(O)cc2o1)c1ccc(Cl)cc1Cl", "UNIT_OF_MEASUREMENT": "%", "growth inhibition": 91}

According to the records, this molecule `CC(=O)/C=C/c1cccc([N+](=O)[O-])c1` displays growth inhibition of 91

According to the records, this molecule CCCCCCCCCCCCCCCCCCNc1nc(=O)n(C2CC(OP(=O)(O)OCC3OC(n4cc(F)c(=O)[nH]c4=O)CC3O)C(CO)O2)cc1F (stereo unspecified) displays growth inhibition of 51

According to the records, this molecule `Cc1cc(O)c(C(C)C)cc1SC#N` displays growth inhibition of 99

According to the records, this molecule `CCS(=O)(=O)Nc1ccc(Nc2c3ccccc3nc3ccccc23)c(OC)c1` displays growth inhibition of 74

According to the records, this molecule O=S(=O)(NC1CCCC(c2ccccc2)C1)c1ccccc1 (stereo unspecified) displays growth inhibition of 96

According to the records, this molecule `CC1=CC(=O)C=CC1=Nc1cc(Cl)c(O)c(Cl)c1` displays growth inhibition of 89

According to the records, this molecule N#CC1OB(O)c2ccccc21 (stereo unspecified) displays growth inhibition of 1

According to the records, this molecule O=C1CC(C(O)(C(F)(F)F)C(F)(F)Cl)CCC1C(O)(C(F)(F)F)C(F)(F)Cl (stereo unspecified) displays growth inhibition of 99

According to the records, this molecule `O=c1[nH]c2c([N+](=O)[O-])cccc2c2ccccc12` displays growth inhibition of 86

According to the records, this molecule `CC(C)(C)c1ccc2c(c1)C(=O)c1ccccc1C2=O` displays growth inhibition of 13

###

Here, each record is paired with measured growth inhibition data.
test: NCI Yeast Anticancer Drug Screen. Data for the mlh1 strain (AID 171);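 also: 0% = growth of vehicle-treated control cultures of the same strain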; conditions: S. cerevisiae mlh1 strain growth inhibition; at 11.0 µM; hits give high values
The panel holds about 79,000 compounds, 15% with a hit somewhere; the sample as a whole holds those more often.
Use % as the unit, but write only the number.

{"COMPOUND": "CCCCCc1c(CCCC)c(=O)[nH]c2cc(CNCC(OC)OC)ccc12", "OBSERVABLE": "growth inhibition", "RESULT": 52}
{"COMPOUND": "CC1=COC2=C(C)C(=O)C(=O)c3c(C)ccc1c32", "OBSERVABLE": "growth inhibition", "RESULT": 47}
{"COMPOUND": "CCCCCCCCCCCCOCCOCCOCC(N)=O", "OBSERVABLE": "growth inhibition", "RESULT": 6}
{"COMPOUND": "COC(=N)c1ccc(O)c(C)c1", "OBSERVABLE": "growth inhibition", "RESULT": -7}
{"COMPOUND": "COc1ccc2nc3cccc([N+](=O)[O-])c3c(NCCNCCO)c2c1", "OBSERVABLE": "growth inhibition", "RESULT": 50}
{"COMPOUND": "c1c[nH]c(CN2CCN(Cc3ncc[nH]3)CC2)n1", "OBSERVABLE": "growth inhibition", "RESULT": 97}
{"COMPOUND": "COc1ccc2c(c1)CCCC(Br)C2=O (centres undefined)", "OBSERVABLE": "growth inhibition", "RESULT": 36}
{"COMPOUND": "CC(C)[Si]1(C(C)C)OCC2OC(n3cnc4c(N)ncnc43)C(N)C2O[Si](C(C)C)(C(C)C)O1 (centres undefined)", "OBSERVABLE": "growth inhibition", "RESULT": 32}

According to the records, this compound `CC(C)Cc1ncc(CCCN=C(N)N)[nH]c1=O` displays growth inhibition of -6

According to the records, this compound O=C(O)c1ccccc1C(=O)OC1CCc2ccccc2C1 (centres undefined) displays growth inhibition of -6

According to the records, this compound `O=[N+]([O-])c1cn[n+]([O-])c2ccccc12` displays growth inhibition of 39

According to the records, this compound `O=P(C(=S)Nc1c(Cl)cccc1Cl)(c1ccccc1)c1ccccc1` displays growth inhibition of 0

According to the records, this compound O=C(NCCCCN1CC2CCCC2C1)C(C1CCCCC1)C1CCCCC1 (centres undefined) displays growth inhibition of 25

According to the records, this compound O=C(NNc1ccccc1)C(CCCCNS(=O)(=O)Cc1ccccc1)NS(=O)(=O)Cc1ccccc1 (centres undefined) displays growth inhibition of 11

According to the records, this compound COC(=O)C1CCCCC1C(=O)Nc1ccccc1 (centres undefined) displays growth inhibition of 2

According to the records, this compound `ClCCCOc1c(Cl)cc(Cl)cc1Cl` displays growth inhibition of 3

According to the records, this compound `CCOC(=O)C(Cc1c2ccccc2cc2ccccc12)(NC(C)=O)C(=O)OCC` displays growth inhibition of -3

###

experiment: NCI Yeast Anticancer Drug Screen. Data for the wt1 strain (AID 149);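 also: 0% = growth of vehicle-treated wt1 cultures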; conditions: S. cerevisiae wt1 strain (SPY 50644) growth inhibition; at 100.0 µM; hits give high values
This is part of a sample that, as a whole, favours compounds with a hit. Of some 79,000 tested, about 15% had one in any assay.
Here, each record is paired with measured growth inhibition data.
Use % as the unit, but write only the number.

{"COMPOUND": "CCOP(=O)(OCC)/C(C#N)=C/c1ccc(-c2ccc(F)cc2F)o1", "OBSERVABLE": "growth inhibition", "RESULT": -1}
{"COMPOUND": "CCCCS(=O)(=O)Nc1ccc(Nc2c3ccccc3nc3ccccc23)c(OC)c1", "OBSERVABLE": "growth inhibition", "RESULT": 96}
{"COMPOUND": "COC(=O)C1=C(C(=O)OC)CC(n2nnc(C(=O)OC)c2C(=O)OC)=CC1", "OBSERVABLE": "growth inhibition", "RESULT": -2}
{"COMPOUND": "CCN(CC)CCNc1ccc2ncn3c4ccc(O)cc4c(=O)c1c23", "OBSERVABLE": "growth inhibition", "RESULT": 1}
{"COMPOUND": "C[N+](C)([O-])CCCNc1c2ccccc2nc2cccc([N+](=O)[O-])c12", "OBSERVABLE": "growth inhibition", "RESULT": 94}
{"COMPOUND": "Cc1cc(C)c(S(=O)(=O)c2ccc(Cl)cc2)c(C)c1", "OBSERVABLE": "growth inhibition", "RESULT": -4}

According to the records, this compound `CCOP(=O)(OCC)/C(C#N)=C/c1cccc(Oc2ccccc2)c1` displays growth inhibition of 97

According to the records, this compound `c1ccc2nc3c(nc2c1)sc1ccccc13` displays growth inhibition of 23

According to the records, this compound `COc1ccc2nc(CCc3ccccc3)ccc2c1` displays growth inhibition of 96

According to the records, this compound O=S(=O)(NC1CCCC(c2ccccc2)C1)c1ccccc1 (stereo unspecified) displays growth inhibition of 50

According to the records, this compound `O=C1/C(=C/c2ccc(Cl)c(Cl)c2)CNC/C1=C\c1ccc(Cl)c(Cl)c1` displays growth inhibition of 95

###

Here, each record is paired with measured growth inhibition data.
experiment: NCI Yeast Anticancer Drug Screen. Data for the bub3 strain (AID 167); conditions: S. cerevisiae bub3 mutant strain, at 100.0 µM, hits give high values
Compounds without any hit were thinned out: in the full panel of roughly 79,000, 15% have a hit. Activity calls are given as the source filed them. Rule as the data show it: active = growth inhibition above about 70%; inactive = the rest.

{"COMPOUND": "O=C1C(=O)N(c2ccccc2)[C@@]2(c3ccccc3)C(=Nc3ccccc3)OC(c3ccccc3)=C12", "growth inhibition": "20% (inactive)"}
{"COMPOUND": "CCCCN(CCCC)c1ccc(N=Nc2ccc(S(=O)(=O)O)cc2)cc1", "growth inhibition": "95% (active)"}
{"COMPOUND": "O=c1c2ccccc2nc(-c2cccc([N+](=O)[O-])c2)n1O", "growth inhibition": "70% (active)"}
{"COMPOUND": "O=NC1c2cccc3cccc(c23)C1N=O (stereo unspecified)", "growth inhibition": "44% (inactive)"}
{"COMPOUND": "CN(C)CCNC(=Cc1ccc2ccccc2[n+]1C)NCCN(C)C", "growth inhibition": "-5% (inactive)"}

According to the records, this compound `CC1=CC(=O)C=CC1=Nc1cc(Cl)c(O)c(Cl)c1` displays growth inhibition of 92% (active)

According to the records, this compound `CC(=O)CCC1=C(C)C(=O)C(=O)C(C)=C1O` displays growth inhibition of 89% (active)

According to the records, this compound `Cc1cccc(/C=N/NC(=S)NC2CCCCC2)n1` displays growth inhibition of 20% (inactive)

According to the records, this compound O=C1c2ccccc2N2OC3(N4CCCC4)CCCCC3C12c1ccccc1 (stereo unspecified) displays growth inhibition of 98% (active)

According to the records, this compound `O=C(C#Cc1ccccc1)/C=C/c1ccccc1` displays growth inhibition of 96% (active)

According to the records, this compound `CN1CCN(C(=O)c2cccc3cccc(C(=O)O)c23)CC1` displays growth inhibition of 97% (active)
